System: AKT2 (human), P31751 [S474D]
Sequence (P31751 whole entry S474D, looked up): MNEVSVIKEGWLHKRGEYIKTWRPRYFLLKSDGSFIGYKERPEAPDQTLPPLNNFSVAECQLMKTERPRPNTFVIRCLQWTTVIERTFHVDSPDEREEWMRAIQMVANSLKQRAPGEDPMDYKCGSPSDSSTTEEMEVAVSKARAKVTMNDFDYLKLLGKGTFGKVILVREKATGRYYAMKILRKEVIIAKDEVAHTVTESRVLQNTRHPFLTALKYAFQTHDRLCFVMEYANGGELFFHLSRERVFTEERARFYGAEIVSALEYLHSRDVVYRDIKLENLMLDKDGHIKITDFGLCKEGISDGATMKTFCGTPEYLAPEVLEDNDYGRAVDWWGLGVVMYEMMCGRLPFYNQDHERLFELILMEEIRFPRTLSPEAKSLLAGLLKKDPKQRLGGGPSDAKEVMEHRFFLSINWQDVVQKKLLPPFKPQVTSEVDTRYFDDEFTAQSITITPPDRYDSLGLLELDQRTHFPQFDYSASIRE
testProtocol: radiometric filter-binding kinase assay
conditionsUsed: compound 10.0 µM
Classify by measured residual activity: Y if it is equal to or exceeds 40%, N if it is smaller.

Cc1cccc(Nc2nn(C)c3ncnc(N)c23)c1 Y
CCOC(=O)c1ccc(N2NC(=O)/C(=C/c3ccc([N+](=O)[O-])o3)C2=O)cc1 Y
CCn1c(-c2nonc2N)nc2cncc(CNC3CCNCC3)c21 N
NC(=O)Nc1ccc2c(c1)/C(=C/c1cc(-c3cccnc3)c[nH]1)C(=O)N2 N
CNc1nc(-c2ccc3c(N)n[nH]c3c2)cc(N2C[C@@H](C(=O)NC3CCCCC3)CC[C@H]2C)n1 Y
